Would you mind telling me the reported %Inh of each entry?
system: ERN1; conditions: concentration: 1 μM, replicates: in singlicate; n = 1;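 further: KINOMEscan kinase panel screen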
Answers are plain numbers, in %.

Examples with answers:
GET /values?item= Cc1csc(-c2nc(Nc3ccncc3)c3ccccc3n2)n1 [GW869640] &system= ERN1 returns %Inh: 27

GET /values?item= Cc1cc(-c2ccc3c(c2)CC[C@@H](N[C@@H](C)c2ccccc2)C3)cnc1N.Cl [GW412617] &system= ERN1 returns %Inh: 0

GET /values?item= Cc1c(Cn2ccn3c(=O)cc(N4CCOCC4)nc23)cccc1C(F)(F)F [GSK2289044] &system= ERN1 returns %Inh: 3

GET /values?item= Cl.c1ccc(-c2n[nH]cc2-c2ccnc(-c3ccc(CN4CCOCC4)cc3)c2)nc1 [GW776245] &system= ERN1 returns %Inh: 0

GET /values?item= COC(=O)c1c(-c2ccccc2)c2cc(OC)ccc2c(=O)n1Cc1ccccc1 &system= ERN1 returns %Inh: 17

Can you give me %Inh for all of these, one by one?
1. Cn1ccc2ncnc(Oc3ccc(NC(=O)Nc4ccccc4)cc3)c21
2. COc1cc2ncnc(Nc3ccc4nc(-c5ccccc5)[nH]c4c3)c2cc1OC.Cl [GW282450]
3. CN1C(=O)C(Nc2ccc(Cl)c(C(=O)O)c2)=C(c2ccc(Cl)cc2)C1=O [SB-404290]
4. COc1ccc(Nc2nccc(NCCNC(=O)Nc3ccccc3F)n2)cc1 [GSK1379901]
5. Cc1ccccc1-n1cnc2c(N)ncnc21 [SKF-97510]
6. NC(=O)c1nnc2ccccc2c1N

1: 2; 2: 4; 3: 0; 4: 0; 5: 0; 6: 22

Can you give me %Inh for all of these, one by one?
1. Cc1cccc(-c2nc(C)cc(Nc3ccncc3)n2)n1 [GSK257997]
2. CCCc1ccc(S(=O)(=O)NC2CCN(c3ccnc(Nc4ccc(F)cc4)n3)C2)cc1 (stereo not shown) [GSK1379715]
3. Fc1cccc(COc2nnc(-c3ccc4c(c3)CCO4)o2)c1
4. Cc1cccc(-c2nc(Nc3ccc4[nH]ncc4c3)c3ccccc3n2)n1 [GW857175]
5. COc1ccccc1CNC(=O)c1cc(C(=O)c2ccccc2C)c[nH]1 [GSK364507]
6. COc1cccc(NC(=O)NC2CCN(c3ccnc(Nc4ccc(F)cc4)n3)C2)c1 (stereo not shown) [GSK1379721]
7. Cc1ccc(-c2cc(-c3c[nH]nc3-c3ccccn3)ccn2)cc1 [GW684088]
8. CN(C)CCN(C)C(=O)c1cc(-c2ccncc2)c(-c2ccc(Cl)c(O)c2)o1.Cl.Cl [SB-710397]

4
0
15
35
0
19
0
0

====

test system: CDKL1; conditions: concentration: 1 μM, replicates: in singlicate; n = 1
metricName: %Inh (%)
One number for each entry, in %.

Record COc1ccc(Nc2nccc(-c3cccc(NC(=O)c4cc5cc(F)ccc5[nH]4)c3)n2)cc1 [GSK1229782] . Reported %Inh: 12

Record Cc1c(O)cccc1Nc1ccnc2ccc(C(F)(F)F)cc12.Cl [GW466413] . Reported %Inh: 0

Record O=C(Nc1ccc2c(c1)OCO2)NC1CCN(c2ccnc(Nc3ccc(F)cc3)n2)C1 (centres unmarked) [GSK1379724] . Reported %Inh: 0

Record Cl.Oc1ccc(-c2nc(-c3ccccc3)[nH]c2-c2ccncc2)cc1 [SB-428218] . Reported %Inh: 0

Record CCCc1ccc(S(=O)(=O)NC2CCN(c3ccnc(Nc4ccc(F)cc4)n3)C2)cc1 (centres unmarked) [GSK1379715] . Reported %Inh: 13

Record COc1cccc(NC(=O)NC2CCN(c3ccnc(Nc4ccc(F)cc4)n3)C2)c1 (centres unmarked) [GSK1379721] . Reported %Inh: 5

Record Cc1cc(NCC(c2ccccc2)c2ccccc2)nc(NCc2ccc(C(F)(F)F)cc2)n1 [GW497681] . Reported %Inh: 0

Record Fc1cccc(COc2nnc(-c3ccc4c(c3)CCO4)o2)c1 . Reported %Inh: 0

Record Cc1cc(-c2ccc3c(c2)CC[C@@H](N[C@@H](C)c2ccccc2)C3)cnc1N.Cl [GW412617] . Reported %Inh: 0

Record Cn1ccc2ncnc(Oc3ccc(Nc4nc5ccccc5[nH]4)cc3)c21 . Reported %Inh: 18

Now look at this one.
Record CCn1c(-c2ccccn2)nc2cnccc21 [SB-736398] . Reported %Inh: 9

====

test system: DYRK1A; conditions: concentration: 1 μM, replicates: in singlicate; n = 1
metricName: %Inh (%)
Numbers only, in %.

Examples with answers:
Record CN1C(=O)C(Nc2ccc(Cl)c(C(=O)O)c2)=C(c2ccc(Cl)cc2)C1=O [SB-404290] . Reported %Inh: 2

Record Fc1cccc(COc2nnc(-c3ccc4c(c3)CCO4)o2)c1 . Reported %Inh: 44

Record O=C(Nc1ccc2c(c1)OCO2)NC1CCN(c2ccnc(Nc3ccc(F)cc3)n2)C1 (centres unmarked) [GSK1379724] . Reported %Inh: 27

Record NC(=O)c1nnc2ccccc2c1N . Reported %Inh: 29

Now look at this one.
Record Cn1ccc2ncnc(Oc3ccc(NC(=O)Nc4ccccc4)cc3)c21 . Reported %Inh: 6

====

system: PIM2; conditions: concentration: 1 μM, replicates: in singlicate; n = 1
Would you mind telling me the reported %Inh of each entry?
Give bare numbers, in %.

Record COC(=O)c1c(-c2ccccc2)c2cc(OC)ccc2c(=O)n1Cc1ccccc1 . Reported %Inh: 2

Record O=C(O)COc1ncnc2cc(-c3ccc4[nH]ncc4c3)sc12 . Reported %Inh: 0

Record COc1cc2ncnc(Nc3ccc4nc(-c5ccccc5)[nH]c4c3)c2cc1OC.Cl . Reported %Inh: 0

Record Cc1cccc(-c2nc(Nc3ccncc3)c3ccccc3n2)n1 . Reported %Inh: 18

Record O=C(Nc1n[nH]c2nc(-c3nccs3)c(Br)cc12)C1CCCC1 . Reported %Inh: 0

Record COc1cccc(-c2cc(-c3c[nH]nc3-c3ccccn3)ccn2)c1 . Reported %Inh: 0

Can you give me %Inh for all of these, one by one?
1. Cc1ccc(-c2cc(-c3c[nH]nc3-c3ccccn3)ccn2)cc1
2. CS(=O)(=O)c1ccc(-c2c(-c3ncn[nH]3)sc(N3CCOCC3)c2C#N)cc1
3. CC(C)(C)c1ccc(C(=O)Nc2cn3cc(Cl)ccc3n2)cc1
4. Cl.NC(=O)c1cccc(Nc2nccc(Nc3ccc(Oc4cccc(Cl)c4)c(Cl)c3)n2)c1
5. Fc1cccc(COc2nnc(-c3ccc4c(c3)CCO4)o2)c1
6. Cc1cc(N2Cc3ccccc3C2)nc(Nc2ccc(S(=O)(=O)N3CCOCC3)cc2)n1.Cl
7. Cl.c1ccc(-c2n[nH]cc2-c2ccnc(-c3ccc(CN4CCOCC4)cc3)c2)nc1
8. Cn1ccc2ncnc(Oc3ccc(Nc4nc5ccccc5[nH]4)cc3)c21

0
0
13
0
8
0
13
0

Can you give me %Inh for all of these, one by one?
1. CC(=O)Nc1nc2cnc(Nc3cc(NC(=O)c4cccc(CCC#N)c4)ccc3C)nc2s1
2. Cc1ccc(NC(=O)Nc2cccc(Cl)c2)cc1-c1ccc(C(=O)Nc2ccncc2)cc1
3. O=c1cc(N2CCOCC2)nc2n(Cc3cccc(Cl)c3Cl)ccn12
4. Cc1cccc(-c2nc(Nc3ccc4[nH]ncc4c3)c3ccccc3n2)n1
5. Cc1c(Cn2ccn3c(=O)cc(N4CCOCC4)nc23)cccc1C(F)(F)F

1. 19
2. 0
3. 0
4. 38
5. 0

====

test system: ANKK1; details: concentration: 1 μM, replicates: in singlicate; n = 1
hey, just use condition met if measured %Inh is less than 9%, otherwise condition not met

Answer whether the compound Cc1cc(-c2ccc3c(c2)CC[C@@H](N[C@@H](C)c2ccccc2)C3)cnc1N.Cl has %Inh strictly less than 9%
condition not met

Answer whether the compound O=C1NC(=O)C(N2CCc3ccccc32)=C1c1ccccc1Cl has %Inh strictly less than 9%
condition not met

Answer whether the compound Cl.O=C(Nc1cccc(-c2nn3ncccc3c2-c2ccnc(Nc3cccnc3)n2)c1)c1c(F)cccc1F has %Inh strictly less than 9%
condition not met

***
Answer whether the compound O=C(Nc1n[nH]c2cc(-c3cccc(F)c3F)ccc12)C1CC1 has %Inh strictly less than 9%
condition met

Answer whether the compound O=C(O)COc1ncnc2cc(-c3ccc4[nH]ncc4c3)sc12 has %Inh strictly less than 9%
condition not met

Answer whether the compound Cc1c(Cn2ccn3c(=O)cc(N4CCOCC4)nc23)cccc1C(F)(F)F has %Inh strictly less than 9%
condition met

Answer whether the compound Cl.c1ccc(-c2n[nH]cc2-c2ccnc(-c3ccc(CN4CCOCC4)cc3)c2)nc1 has %Inh strictly less than 9%
condition met

Answer whether the compound Fc1cccc(COc2nnc(-c3ccc4c(c3)CCO4)o2)c1 has %Inh strictly less than 9%
condition met

====

tested on: FLT1; settings: concentration: 1 μM, replicates: in singlicate; n = 1
Would you mind telling me the reported %Inh of each entry?
Answers are plain numbers, in %.

Can you give me %Inh for all of these, one by one?
1. Clc1cc(Cl)cc(Nc2ccnc(Nc3cc(Cl)cc(Cl)c3)n2)c1
2. Cc1cc(NCC(c2ccccc2)c2ccccc2)nc(NCc2ccc(C(F)(F)F)cc2)n1
3. CN(C)CCN(C)C(=O)c1cc(-c2ccncc2)c(-c2ccc(Cl)c(O)c2)o1.Cl.Cl
4. COC(=O)c1c(-c2ccccc2)c2cc(C(=O)O)ccc2c(=O)n1Cc1ccccc1

[16, 11, 43, 7]

Can you give me %Inh for all of these, one by one?
1. Cc1cccc(-c2nc(Nc3cccc(C(N)=O)c3)c3ccccc3n2)n1
2. CCn1c(-c2ccccn2)nc2cnccc21
3. CCCc1ccc(S(=O)(=O)NC2CCN(c3ccnc(Nc4ccc(F)cc4)n3)C2)cc1 (stereo not drawn)
4. O=C(Nc1ccccc1)Nc1cccc(Oc2ccc3nccn3n2)c1
5. Cl.NC(=O)c1cccc(Nc2nccc(Nc3ccc(Oc4cccc(Cl)c4)c(Cl)c3)n2)c1

[42, 21, 18, 96.8, 36]
